Each recorded value in this set is attributed to patent US7205275.

Biological target: T1, human Ang-2 (human, UniProt O15123)
T1 chain: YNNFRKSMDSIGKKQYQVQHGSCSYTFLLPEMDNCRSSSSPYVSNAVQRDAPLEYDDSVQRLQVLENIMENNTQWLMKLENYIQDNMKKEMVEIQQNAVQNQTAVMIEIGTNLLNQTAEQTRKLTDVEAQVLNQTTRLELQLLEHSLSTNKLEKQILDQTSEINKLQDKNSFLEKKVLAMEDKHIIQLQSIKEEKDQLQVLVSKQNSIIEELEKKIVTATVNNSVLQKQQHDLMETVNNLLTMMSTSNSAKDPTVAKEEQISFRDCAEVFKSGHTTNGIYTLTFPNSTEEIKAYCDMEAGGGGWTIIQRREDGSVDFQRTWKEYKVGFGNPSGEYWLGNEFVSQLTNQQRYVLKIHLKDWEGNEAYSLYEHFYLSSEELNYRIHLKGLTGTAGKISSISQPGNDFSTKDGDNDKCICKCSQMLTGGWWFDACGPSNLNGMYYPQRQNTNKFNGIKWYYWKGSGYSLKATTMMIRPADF
Experiment: competition ELISA vs Tie-2
Primed or numbered codes have the meaning given here. Where no end group is shown, it is not given here. [ ]: non-standard residue; d: D form. Fc(3) = Fc: non-antigen-binding fragment of an antibody from proteolytic digestion of a whole antibody (vehicle); Fc = immunoglobulin Fc domain fused to the peptide (peptibody); Fc(7) = Fc domain, peptide fused N- or C-terminal to it; Fc″ = Fc domain of the peptibody fusion
endpoint name: IC50 (nM)

See these solved cases before continuing.
binder | endpoint name | obs value
MGAQEDYMPLDALDAQLYEQFILLHGLEGGGGG-{Fc(3)} [L1-20 (N)] | IC50 | 0.09
M[Fc(7)]GGGGGAQLQEWCEGVEDPFTFGCEKQRLE (not fully specified (bridges); cysteine pairing not given here) [12-9-3 (C)] | IC50 | 0.81
MGAQHTFQPLDELEETLYYQWLYDQLLEGGGGG-{Fc″} [L1-21 (N)] | IC50 | 0.17
MGAQQEYEPLDELDETLYNQWMFHQRLEGGGGG[Fc(3)] [L1-13 (N)] | IC50 | 0.05
MGAQTNFMPMDDLEQRLYEQFILQQGLEGGGGG-Fc [L1-7 (N)] | IC50 | 0.03
M[Fc]GGGGGAQGQDLRPCEDMFGCGTKDWYGLE (not fully specified (bridges); cysteine pairing not given here; also: Fc fusion domain at position 2) [Con1-6 (C)] | IC50 | 8.6
MGAQVKFKPLDALEQTLYEHWMFQQALEGGGGG-Fc [L1-4 (N)] | IC50 | 0.08
MGAQTKFQPLDELDQTLYEQWTLQQRLEGGGGG-Fc [L1-C2 (N)] | IC50 | 0.05
MGAQYKFNPMDELEQTLYEEFLFQHALEGGGGG-{Fc″} [L1-22 (N)] | IC50 | 0.09
MGAQLNFTPLDELEQTLYEQWTLQQSLEGGGGG[Fc(3)] [L1-2 (N)] | IC50 | 0.04

I. MGAQTKFNPLDELEQTLYEQWTLQHQLEGGGGG-{Fc″} [L1-3 (N)]
II. MGAQQKFKPLDELEQTLYEQWTLQQRLEGGGGG-Fc [L1-C1 (N)]
III. M[Fc(7)]GGGGGAQHQEYCEGMEDPFTFGCEYQGLE (not fully specified (bridges); cysteine pairing not given here) [12-9-6 (C)]
Q. Put the binders in ascending order of IC50. Could you list the labels in the order requested?
A. I, II, III
(I: 0.16 nM, II: 0.56 nM, III: 0.95 nM)

1. MGAQQKFQPLDELEETLYKQWTLQQRLEGGGGG[Fc(3)] [L1-16 (N)]
2. M[Fc(7)]GGGGGAQGFEYCDGMEDPFTFGCDKQTLE (not fully specified (bridges); cysteine pairing not given here) [12-9-1 (C)]
3. M[Fc(7)]GGGGGAQLQDYCEGVEDPFTFGCEKQRLE (not fully specified (bridges); cysteine pairing not given here) [12-9-C1 (C)]
Q. Task for the reader: rank each entry by its IC50, from the minimum upward. Write the labels out in the order the request specifies.
A. 1, 2, 3

1. M[Fc(7)]GGGGGAQAQDYCEGMEDPFTFGCEMQKLE (not fully specified (bridges); cysteine pairing not given here) [12-9-4 (C)]
2. MGAQQKYQPLDELDKTLYDQFMLQQGLEGGGGG[Fc(3)] [L1-15 (N)]
Q. Problem: Given the entries 1 and 2 , determine which has the lower reported IC50. Indicate which entry you chose by stating its label.
A. 2

I. MGAQQKFQPLDELEQTLYEQFMLQQALEGGGGG[Fc(3)] [L1-10 (N)]
II. MGAQTNYKPLDELDATLYEHWILQHSLEGGGGG[Fc(7)] [AC6-L1 (N)]
Q. For the two items I and II , which reports the higher IC50 value? In your reply, give the label of the chosen option.
A. I
(I: 0.05 nM, II: 0.03 nM)
